# System: Plasmodium falciparum
# measurement_notes: GSK_TCMDC: Inhibition of Plasmodium falciparum 3D7 in whole erythrocytes, using parasite LDH activity as an index of growth.
# Type: functional, organism-based
# applied_conditions: Plasmodium falciparum, 3D7
endpoint_label: XC50 (nM)
Give a bare numeral; the unit nM is implied.

What value of XC50 has been recorded for this entry: `O=C(/C=C/c1ccc(Cl)c(Cl)c1)NCCCCCCN1CCCN(C(=O)Nc2cc(F)cc(F)c2)CC1`
708

Dear colleague, I am looking for the recorded XC50 of the following compound: OC(CNCc1ccccc1OCc1ccccc1)c1cccc(Cl)c1 (stereo not given)
219

State the recorded XC50 for this entry: `COc1ccc(CNCc2cccc(-c3cccc(-c4nc5cc(C(F)(F)F)ccc5[nH]4)c3)c2)cc1`
196

Could you share which XC50 value was measured for `CCCc1ccc(S(=O)(=O)NC2CCN(C(=O)Nc3ccc(I)cc3)CC2)cc1` ?
872

Entry `COc1ccc(Nc2ncc3c(-c4cccc(NC(=O)Cc5cccc(O)c5)c4)c[nH]c3n2)cc1OC` : reported XC50 = ?
698

Would you kindly share the measured XC50 for `COc1ccc(-c2cccc(NC(=O)c3cccs3)c2)cc1CN1CCCN(C)CC1` ?
698

So what does the record say about XC50 for `COc1ccc(OCCCON)cc1` ?
167

Consider the compound `CCN(CC)CCN(Cc1ccc(-c2ccc(C(F)(F)F)cc2)cc1)C(=O)Cn1nc(-c2ccc(C(F)(F)F)cc2)ccc1=O` and give its measured XC50.
797

What measured XC50 goes with `Cc1ccccc1CNc1noc(-c2c(-c3ccccc3)noc2C)n1` ?
902

Fill in the blank: the reported XC50 of `CO/C(=C\C=C\c1cc2cc(Cl)c(Cl)cc2[nH]1)C(=O)NC1CCN(CCOc2ccccc2)CC1` is ____.
611

XC50 lookup needed for `Cc1cccc(N2C(N)=NC(N)=NC2(C)C)c1C` , thanks.
759

Would you mind telling me what XC50 value was observed for `Cc1[nH]c(-c2ccc(F)cc2)cc1C(=O)NC1CCN(Cc2ccccc2)CC1` ?
1130

Please give the measured XC50 for this compound: `Clc1ccc(-c2ccc(CNCCCN3CCCC3)cc2)cc1`
1060

Using the record for COc1c(O)cc2oc(-c3ccc(O)cc3)cc(=O)c2c1O [HISPIDULIN] , report its XC50.
771

Could you share which XC50 value was measured for `O=C(Nc1ccccc1)N(Cc1cccc(-c2cccc(CNCCc3ccccc3)c2)c1)C1CCN(Cc2ccccc2)CC1` ?
307

Which XC50 value is on record for `CC(C)(C)c1ccc(CNC(=O)/C=C/c2ccc(CNC3CCNCC3)cc2)cc1` ?
1090

Given the entry Cc1cccc(-n2c(Nc3ccc(C)c(Cl)c3)nc3ccc(S(=O)(=O)NC(C)C(C)C)cc32)c1 (stereo not given) , report its measured XC50.
648

Give the measured XC50 of CC12CN3CC(C)(CN(C1)C3c1cc(Br)ccc1O)C2O (stereo not given) .
228

// returns reported XC50 for input OC(CN(Cc1ccccc1)Cc1ccccc1)Cn1c2ccc(Cl)cc2c2cc(Cl)ccc21 (stereo not given)
995

State the recorded XC50 for this entry: Cc1ccccc1C1CCN(C2CCC(NC(=O)c3ccc(-c4cccs4)s3)CC2)CC1 (stereo not given)
1030

----------
# Tested on: Plasmodium falciparum
# measurement_notes: GSK_TCMDC: Inhibition of Plasmodium falciparum 3D7 in whole erythrocytes, using parasite LDH activity as an index of growth.
# Format: functional, organism-based
# applied_conditions: Plasmodium falciparum, 3D7
Rule for this label: MET means XC50 is less than 800 nM; NOT MET means XC50 is at least 800 nM.

Does this compound meet the criterion XC50 < 800 nM? `CC[C@H](NC(=O)c1c(CC2CCN(CC(C)=O)CC2)c(-c2ccccc2)nc2ccccc12)c1ccccc1`
MET

Criterion: XC50 strictly below 800 nM. Is it met by `CC(C)C[C@@H](/C=N/NC(N)=O)NC(=O)[C@H](CC(C)C)NC(=O)[C@H](CC(C)C)NC(=O)OCc1ccccc1` ?
MET

Check if XC50 falls below 800 nM for `COc1ccc(NC(=O)Nc2ccc(-c3ccccc3)cc2Cl)cc1N1CCN(C)CC1` .
NOT MET

Regarding `COc1c(C2CCN(CCCCNC(=O)c3cc(-c4ccc(C#N)cc4)n[nH]3)CC2)ccc2c1CCCC2` , kindly confirm whether its XC50 is beneath 800 nM.
NOT MET
